reportedConditions: 303.15 K; 100 kPa; Liquid; Single path-length method
measuredAttribute: speed of sound (m/s)

compound	experimentalResult
CCCCCCC(=O)[O-].CN(C)C(=[NH2+])N(C)C [1,1,3,3-tetramethylguanidinium heptanoate]	1500.2
CCCCCCCC(=O)[O-].CN(C)C(=[NH2+])N(C)C [1,1,3,3-tetramethylguanidinium octanoate]	1465.4
CCCCC(=O)[O-].CN(C)C(=[NH2+])N(C)C [1,1,3,3-tetramethylguanidinium pentanoate]	1508.7
CCCCCC(=O)[O-].CN(C)C(=[NH2+])N(C)C [1,1,3,3-tetramethylguanidinium hexanoate]	1505.5
CCCC(=O)[O-].CN(C)C(=[NH2+])N(C)C [1,1,3,3-tetramethylguanidinium butanoate]	1559.4

Data provenance: the NIST ThermoML archive (doi:10.1021/acs.jced.9b00377)
